# Tested on: Calu-3
# assay name: cell viability relative to DMSO; higher = less toxic
# measurement setup: 72 h; 1 nM
Each record here notes measured cell viability.
readout name: cell viability (%)

>  <compound>
CCOc1ccc(Cc2cc([C@]34OC[C@](CO)(O3)[C@@H](O)[C@H](O)[C@H]4O)ccc2Cl)cc1 [ertugliflozin]

>  <readout name>
cell viability

>  <data value>
106

$$$$
>  <compound>
Cc1ccc2c(c1)C1(CCN(CCc3nc(-c4ccccc4)oc3C)CC1)OC(=O)N2

>  <readout name>
cell viability

>  <data value>
94.9

$$$$
>  <compound>
OCCN(CCO)c1nc(N2CCCCC2)c2nc(N(CCO)CCO)nc(N3CCCCC3)c2n1 [dipyridamole]

>  <readout name>
cell viability

>  <data value>
99.1

$$$$
>  <compound>
CCNC(=O)[C@H]1O[C@@H](n2cnc3c(N)nc(NCCc4ccc(CCC(=O)O)cc4)nc32)[C@H](O)[C@@H]1O

>  <readout name>
cell viability

>  <data value>
95.7

$$$$
>  <compound>
C=C[C@]1(C)CC[C@@H](C(=C)C)C[C@H]1C(=C)C [beta-elemene]

>  <readout name>
cell viability

>  <data value>
106

$$$$
>  <compound>
CCCN1CCN(c2ccc(C(=O)NC3(C(=O)NCC#N)CCCCC3)cc2)CC1 [balicatib]

>  <readout name>
cell viability

>  <data value>
108

$$$$
>  <compound>
Nc1ccc(C(=O)O)cc1 [potassium-p-aminobenzoate]

>  <readout name>
cell viability

>  <data value>
107

$$$$
>  <compound>
CCc1cc(/C(C)=N/OCc2ccc(C3CCCCC3)c(C(F)(F)F)c2)ccc1CN1CC(C(=O)O)C1 [siponimod]

>  <readout name>
cell viability

>  <data value>
116

$$$$
>  <compound>
CCOc1ccccc1N/N=C1/C(=O)N(c2nc(-c3ccccc3)cs2)N=C1C [BAM7]

>  <readout name>
cell viability

>  <data value>
96.5

$$$$
>  <compound>
O=c1n(CC2CO2)c(=O)n(CC2CO2)c(=O)n1CC1CO1 (centres undefined) [teroxirone]

>  <readout name>
cell viability

>  <data value>
94.4

$$$$
>  <compound>
CC1(C)OC(=O)C(OCC2CC2)=C1c1ccc(S(C)(=O)=O)cc1 [firocoxib]

>  <readout name>
cell viability

>  <data value>
95.9

$$$$
>  <compound>
OCC(Br)(Br)Br [tribromoethanol]

>  <readout name>
cell viability

>  <data value>
91.4

$$$$
>  <compound>
Cn1c(N2CCCCS2(=O)=O)nc(C(=O)NCc2ccc(F)cc2)c(O)c1=O

>  <readout name>
cell viability

>  <data value>
98.4

$$$$
>  <compound>
CCCCCn1cc(C(=O)NC23CC4CC(CC(C4)C2)C3)c(=O)c2cc(-c3ccccc3)ccc21 [COR-170]

>  <readout name>
cell viability

>  <data value>
105

$$$$
>  <compound>
OCCCNc1ccccc1 [3-anilinopropan-1-ol]

>  <readout name>
cell viability

>  <data value>
106

$$$$
>  <compound>
Cc1ccc(/C=C2\CNC/C(=C\c3ccc(C)cc3)C2=O)cc1

>  <readout name>
cell viability

>  <data value>
92.7

$$$$
>  <compound>
Nc1nc2ccc(Cl)cc2c2nc(-c3ccco3)nn12

>  <readout name>
cell viability

>  <data value>
109

$$$$
>  <compound>
C[C@H](NC(=O)[C@@H](O)c1cc(F)cc(F)c1)C(=O)N[C@@H]1C(=O)N(C)c2ccccc2-c2ccccc21

>  <readout name>
cell viability

>  <data value>
98

$$$$
>  <compound>
CCOC(=O)c1ncc2[nH]c3cccc(OC(C)C)c3c2c1C

>  <readout name>
cell viability

>  <data value>
88.7

$$$$

====

Each record here notes measured cell viability.
# Test system: Vero E6
# assay name: cell viability relative to DMSO; higher = less toxic
# measurement setup: 72 h; 10 nM

>  <sample smiles>
Nc1nc2ccc(Cl)cc2c2nc(-c3ccco3)nn12

>  <cell viability (%)>
97.6

$$$$
>  <sample smiles>
Cc1cc(C)c2c(c1)[C@@H](N(Cc1cc(C(F)(F)F)cc(C(F)(F)F)c1)c1nnn(C)n1)CCCN2C[C@H]1CC[C@H](C(=O)O)CC1

>  <cell viability (%)>
97.3

$$$$
>  <sample smiles>
CCc1cc(/C(C)=N/OCc2ccc(C3CCCCC3)c(C(F)(F)F)c2)ccc1CN1CC(C(=O)O)C1

>  <cell viability (%)>
101

$$$$
>  <sample smiles>
COc1ccc(-c2cc3c(C)nc(N)nc3n([C@H]3CC[C@H](OCCO)CC3)c2=O)cn1

>  <cell viability (%)>
98.4

$$$$

====

# System: Caco-2
# assay name: cell viability relative to DMSO; higher = less toxic
# measurement setup: 72 h; 1000 nM
One threshold, 90%, splits the recorded cell viability values: lower ones are rule met, equal or higher ones are rule not met.

>  <compound>
O=C(O)C[CH2][Ge](=[O])[O][Ge](=[O])[CH2]CC(=O)O [propagermanium]

>  <study system>
Caco-2

>  <category label>
rule not met

$$$$
>  <compound>
O=C(O)c1cc(O)c2c(c1)[C@H]([C@H]1c3cc(C(=O)O)cc(O)c3C(=O)c3c(O[C@@H]4O[C@H](CO)[C@@H](O)[C@H](O)[C@H]4O)cccc31)c1cccc(O[C@@H]3O[C@H](CO)[C@@H](O)[C@H](O)[C@H]3O)c1C2=O [sennoside-A]

>  <study system>
Caco-2

>  <category label>
rule met

$$$$
>  <compound>
N#Cc1ccc(NCCNCC(=O)N2CCC[C@H]2C#N)nc1 [NVP-DPP728]

>  <study system>
Caco-2

>  <category label>
rule not met

$$$$
>  <compound>
COc1cc2cc(c1Cl)N(C)C(=O)C[C@H](OC(=O)C(C)C)[C@]1(C)O[C@@H]1[C@H](C)[C@@H]1C[C@@](O)(NC(=O)O1)[C@H](OC)/C=C/C=C(\C)C2 [ansamitocin-p-3]

>  <study system>
Caco-2

>  <category label>
rule met

$$$$
>  <compound>
CC[C@H](C)[C@H]1O[C@]2(CC[C@@H]1C)C[C@@H]1C[C@@H](C/C=C(\C)[C@@H](O[C@H]3C[C@H](OC)[C@@H](O[C@H]4C[C@H](OC)[C@@H](O)[C@H](C)O4)[C@H](C)O3)[C@@H](C)/C=C/C=C3\CO[C@@H]4[C@H](O)C(C)=C[C@@H](C(=O)O1)[C@]34O)O2 [ivermectin]

>  <study system>
Caco-2

>  <category label>
rule not met

$$$$

====

Each record here notes measured cell viability.
# Test system: Caco-2
# assay name: cell viability relative to DMSO; higher = less toxic
# measurement setup: 72 h; 1000 nM
readout name: cell viability (%)

>  <compound>
CN1CCc2cc3c(cc2[C@H]1[C@@H]1OC(=O)c2c1ccc1c2OCO1)OCO3 [bicuculline-(+)]

>  <data value>
96.5

$$$$
>  <compound>
COc1ccc(-c2cc3c(C)nc(N)nc3n([C@H]3CC[C@H](OCCO)CC3)c2=O)cn1

>  <data value>
27.7

$$$$
>  <compound>
S=C(NC1CCCCC1)N1CCC(c2cnc[nH]2)CC1 [thioperamide]

>  <data value>
103

$$$$
>  <compound>
CCOc1nc2cccc(C(=O)OC(C)OC(=O)OC3CCCCC3)c2n1Cc1ccc(-c2ccccc2-c2nn[nH]n2)cc1 (stereo not given)

>  <data value>
101

$$$$
>  <compound>
CCCc1ccc(C(=O)O)cc1

>  <data value>
89.7

$$$$

====

# System: A549-ACE2 infected with SARS-CoV-2
# assay name: morphology score (similarity to uninfected cells); higher = more like uninfected cells
# measurement setup: 10 µM; 24 h
Each record here notes measured morphology score.

>  <compound>
CNc1cc(OC)c(C(=O)NC2CCN(Cc3ccccc3)C2C)cc1Cl (centres undefined) [nemonapride]

>  <morphology score>
0.82

$$$$
>  <compound>
COc1ccc(C(=O)/C(Cc2cc(OC)c(OC)c(OC)c2)=C(\C(=O)O)c2ccc3c(c2)OCO3)cc1

>  <morphology score>
0.6

$$$$
>  <compound>
CC(C)C[C@@H](C=O)NC(=O)[C@H](CC(C)C)NC(=O)[C@H](CC(C)C)NC(=O)OCc1ccccc1 [MG-132]

>  <morphology score>
0.22

$$$$
>  <compound>
O=C(O)CCCCCCCC(=O)O [azelaic-acid]

>  <morphology score>
0.06

$$$$

====

# Test system: Calu-3
# assay name: cell viability relative to DMSO; higher = less toxic
# measurement setup: 72 h; 10000 nM

>  <compound>
CCCNC(C)C(=O)Nc1ccccc1C (stereo not drawn)

>  <cell viability, %>
101

$$$$
>  <compound>
O=C(O)c1cc([N+](=O)[O-])ccc1NCCCc1ccccc1

>  <cell viability, %>
96.2

$$$$
>  <compound>
C=C1/C(=C\C=C2/CCC[C@]3(C)[C@@H]([C@H](C)/C=C/[C@H](C)C(C)C)CC[C@@H]23)C[C@@H](O)C[C@@H]1O

>  <cell viability, %>
111

$$$$
>  <compound>
O=c1n(CC2CO2)c(=O)n(CC2CO2)c(=O)n1CC1CO1 (stereo not drawn)

>  <cell viability, %>
90.9

$$$$
>  <compound>
CCc1cc(/C(C)=N/OCc2ccc(C3CCCCC3)c(C(F)(F)F)c2)ccc1CN1CC(C(=O)O)C1

>  <cell viability, %>
97.6

$$$$
>  <compound>
CC(=O)OCC(=O)[C@@]1(O)CC[C@H]2[C@@H]3CCC4=CC(=O)C=C[C@]4(C)[C@@]3(F)[C@@H](O)C[C@@]21C [isoflupredone-acetate]

>  <cell viability, %>
107

$$$$
>  <compound>
Nc1nc(N)c2nc(-c3ccccc3)c(N)nc2n1

>  <cell viability, %>
102

$$$$
>  <compound>
COc1ccc(C(CN(C)C)C2(O)CCCCC2)cc1 (stereo not drawn)

>  <cell viability, %>
107

$$$$
>  <compound>
CCN(CC)CCCCNc1ncc2cc(-c3c(Cl)cccc3Cl)c(NC(=O)NC(C)(C)C)nc2n1

>  <cell viability, %>
29.8

$$$$
>  <compound>
COc1ccc(-c2nc(C(=O)N3CCN(C)CC3)sc2-c2ccc(OC)cc2)cc1

>  <cell viability, %>
106

$$$$
>  <compound>
CC(=O)OCC(=O)[C@@]1(O)CC[C@H]2[C@@H]3CCC4=CC(=O)CC[C@]4(C)[C@H]3[C@@H](O)C[C@@]21C [hydrocortisone-acetate]

>  <cell viability, %>
89.2

$$$$
>  <compound>
Cc1c(CC(C)(C)C(=O)O)n(Cc2ccc(Cl)cc2)c2ccc(F)cc12

>  <cell viability, %>
88

$$$$
>  <compound>
C[C@H](NC(=O)Cc1cc(F)cc(F)c1)C(=O)N[C@@H]1C(=O)N(C)c2ccccc2-c2ccccc21

>  <cell viability, %>
94.9

$$$$
>  <compound>
FC(F)(F)C(F)(F)C(F)(F)N(C(F)(F)C(F)(F)C(F)(F)F)C(F)(F)C(F)(F)C(F)(F)F

>  <cell viability, %>
98.3

$$$$
>  <compound>
O=C1C(O)=C([C@H]2CC[C@H](c3ccc(Cl)cc3)CC2)C(=O)c2ccccc21

>  <cell viability, %>
108

$$$$
>  <compound>
CCCN(CCC)[C@@H]1CCc2c(OC)cccc2[C@@H]1C [UH-232-(+)]

>  <cell viability, %>
95

$$$$
>  <compound>
C[C@@H](NCCCc1cccc(C(F)(F)F)c1)c1cccc2ccccc12

>  <cell viability, %>
7.3

$$$$
>  <compound>
O=C(O)c1cc(O)c2c(c1)[C@H]([C@H]1c3cc(C(=O)O)cc(O)c3C(=O)c3c(O[C@@H]4O[C@H](CO)[C@@H](O)[C@H](O)[C@H]4O)cccc31)c1cccc(O[C@@H]3O[C@H](CO)[C@@H](O)[C@H](O)[C@H]3O)c1C2=O [sennoside-A]

>  <cell viability, %>
67.3

$$$$
>  <compound>
CC(C)NCCCn1c(Sc2cc3c(cc2I)OCO3)nc2c(N)ncnc21

>  <cell viability, %>
41.1

$$$$
>  <compound>
CC(C)c1cc(CNc2nc(Nc3cc(C4CC4)[nH]n3)cc(N3CCN(C)CC3)n2)on1

>  <cell viability, %>
33.9

$$$$
>  <compound>
CCCCCCCCCCCCCCC[C@@H](O)[C@@H](N)CO

>  <cell viability, %>
96.4

$$$$
>  <compound>
NCCCCCCCCCCNS(=O)(=O)c1cccc2c(Cl)cccc12

>  <cell viability, %>
95.1

$$$$
>  <compound>
CC[N+](CC)(CC)CCC(O)(c1ccccc1)C1CCCCC1 (stereo not drawn)

>  <cell viability, %>
106

$$$$
